Biological target: UniProtKB P41595
Sequence (P41595 whole entry): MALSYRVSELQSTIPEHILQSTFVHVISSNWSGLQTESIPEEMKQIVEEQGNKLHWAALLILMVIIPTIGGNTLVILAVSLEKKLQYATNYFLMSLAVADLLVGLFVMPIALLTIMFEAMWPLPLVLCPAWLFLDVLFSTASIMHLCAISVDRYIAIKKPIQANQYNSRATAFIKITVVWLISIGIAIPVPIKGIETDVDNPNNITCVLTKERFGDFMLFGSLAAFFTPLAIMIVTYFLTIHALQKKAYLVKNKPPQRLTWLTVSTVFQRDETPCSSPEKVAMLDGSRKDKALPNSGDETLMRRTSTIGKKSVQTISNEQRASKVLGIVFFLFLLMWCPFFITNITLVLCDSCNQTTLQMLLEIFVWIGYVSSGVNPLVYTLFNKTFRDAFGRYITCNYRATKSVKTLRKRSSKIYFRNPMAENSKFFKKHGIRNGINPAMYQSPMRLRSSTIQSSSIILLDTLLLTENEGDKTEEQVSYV
Assay type: functional, cell-based
measuredAttribute: AC50

compound	studyTarget	AC50
COc1ccc(C(=O)Nc2ccccc2CCC2CCCCN2C)cc1 (stereo not drawn) [ENCAINIDE]	UniProtKB P41595	> 10 µM
CC[C@H]1CN2CCc3cc(OC)c(OC)cc3[C@@H]2C[C@@H]1C[C@H]1NCCc2cc(OC)c(OC)cc21	UniProtKB P41595	> 30 µM
C[C@](N)(Cc1ccc(O)c(O)c1)C(=O)O	UniProtKB P41595	> 10 µM

Give one value of AC50 per listed compound.
1. CC1(C)NC(=O)N(c2ccc([N+](=O)[O-])c(C(F)(F)F)c2)C1=O [NILUTAMIDE]
2. Cn1c(=O)c2c(ncn2CC2OCCO2)n(C)c1=O
3. Cc1nc([N+](=O)[O-])cn1-c1ccc([N+](=O)[O-])cc1
4. Brc1c(NC2=NCCN2)ccc2nccnc12

RESULT:
> 30 µM
> 30 µM
> 30 µM
> 30 µM

Lab entry: UniProtKB P41595 assay, compound CN(C)CCC=C1c2ccccc2C(C)(C)c2ccccc21 , AC50 = 4.34 µM
